Test: amyloid nucleation score (Sup35N fusion, yeast selection) (log enrichment); library NNK2; higher = more nucleation; inactive = no reads after selection;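 further: zero at mode of non-aggregating sequences after 7 days selection at 30°C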

Ordered Residues	amyloid nucleation score
FVFTLIWGHSSKLSESVSFL	inactive
RAANLSLHSNGDTGGESVSD	inactive
YTANLWYQAWMYSYCENPPT	inactive

* * *

Test: amyloid nucleation score (Sup35N fusion, yeast selection) (log enrichment); library NNK3; higher = more nucleation; inactive = no reads after selection
Measure: amyloid nucleation score

Sample records with amyloid nucleation score:
Ordered Residues	amyloid nucleation score
DLTLIWMGGAAM	0.826
KSREWLLSYFCYGW	inactive
RFEFMGFSYPCHLTWLLVGY	inactive
ACTIMWSSLKSIT	inactive

Now for the sequence whose amyloid nucleation score we want.
Query: For WYRHGIVEYDAIIWDESARR , write its amyloid nucleation score.
Result: inactive

* * *

Experiment: amyloid nucleation score (Sup35N fusion, yeast selection) (log enrichment); library NNK1; higher = more nucleation; inactive = no reads after selection
Measure: amyloid nucleation score

Substance	Measure	Reported Measurement
GVCKTYSIDKAPI	amyloid nucleation score	0.823
TSPCYWNCI	amyloid nucleation score	inactive
ERRDVRIYKSCGLGHVFYEG	amyloid nucleation score	4.91
DSSYKWWTYFWGA	amyloid nucleation score	-0.267
LAEYHYGSMFSLNSTYYNLS	amyloid nucleation score	5.91
CDERNNAFLGVFGSS	amyloid nucleation score	-0.288
GVVLGYRCLNMGLKALWSYV	amyloid nucleation score	-0.248
MGVVRLAS	amyloid nucleation score	-0.149
GDIALS	amyloid nucleation score	-0.292
NTQTFEAFSKSFMDLIVRRF	amyloid nucleation score	-0.735

Query: Entry RYNAILAWCSLRKTGVYFLV needs its amyloid nucleation score filled in; supply it.
Result: 1.09

Query: Determine its reported amyloid nucleation score: RWVPYHFV
Result: 2.77

* * *

Assay: amyloid nucleation score (Sup35N fusion, yeast selection) (log enrichment); library NNK3; higher = more nucleation; inactive = no reads after selection
Measure: amyloid nucleation score

Would you please look over these solved cases?
Substance	Measure	Reported Measurement
NPLDSLYLIDIFAHSSASEL	amyloid nucleation score	inactive
AACYINMCIGIVYGYSFLSF	amyloid nucleation score	1.13
WCLHNLVSMLRDQTSRVSFP	amyloid nucleation score	inactive
YQWNIMLKIDCSIDVVVVSN	amyloid nucleation score	0.827
DVPGIGCEGKALRRLGFLLR	amyloid nucleation score	inactive

Query: Give amyloid nucleation score for the following substance: MSADSCCSSCLVSTGTRVTF
Result: inactive

Query: // fetch amyloid nucleation score given entry VTASSPDLIGGVHMEWRLTC
Result: inactive

Query: Give me measured amyloid nucleation score, please, for this substance: KRLHTS
Result: inactive

Query: Give the reported value of amyloid nucleation score for this record: DDRLCLGASENVWGFTVVRR
Result: inactive

Query: Quickly give me recorded amyloid nucleation score for NYRAPMCCELFNKWVF
Result: inactive

Query: Give the reported value of amyloid nucleation score for this record: NAYLCGWL
Result: inactive

Query: Kindly indicate its recorded amyloid nucleation score. Item: YSCNKCVDEMRVRRGIERGV
Result: inactive

Query: Return the recorded amyloid nucleation score value; entry: YFTFCDCLGQLMTRGRGCSV
Result: inactive

Query: Identify the reported amyloid nucleation score for the following entry. HYLLACSYDRFFSRSSAYSL
Result: inactive

Query: Specify measured amyloid nucleation score for YMYFKVDVDWRSPGMTARLL .
Result: inactive

Query: Name the recorded amyloid nucleation score of the item VESCRKDTYNSWFFDCLGDR in your answer.
Result: inactive

* * *

Each record here notes measured amyloid nucleation score.
Assay: amyloid nucleation score (Sup35N fusion, yeast selection) (log enrichment); library NNK1; higher = more nucleation; inactive = no reads after selection
Form field (numeric): enter value without unit.

Query: Determine its reported amyloid nucleation score: WLSETAAWENTYRCLRILHG
Result: -0.446

* * *

Test: amyloid nucleation score (Sup35N fusion, yeast selection) (log enrichment); library NNK2; higher = more nucleation; inactive = no reads after selection

Ordered Residues	amyloid nucleation score
SSLYHLAGHGTAGSRLTSGR	0.511
HTDCYLWLKLYSTLGILFVF	inactive
THVRVEVLS	inactive

* * *

Experiment: amyloid nucleation score (Sup35N fusion, yeast selection) (log enrichment); library NNK1; higher = more nucleation; inactive = no reads after selection
Lab note: compare amyloid nucleation score against 0.5. Equal or greater, write Criterion met. Smaller, write Criterion not met.

Substance	Category
VIFSNWVTAGFACFMHLLVR	Criterion not met
AFAFEYCRTSRIFCQGMEWQ	Criterion met
SSGFYLWCALYRSRGHCNDY	Criterion met
RFLVFPRFCCTRNKPRSETL	Criterion met
DHSCWGAWWVHFGAHDGGWC	Criterion met

Query: Evaluate GAVICICCIIIGKYC : amyloid nucleation score at minimum 0.5?
Result: Criterion met

Query: Say whether CSCGLSYGLYFE shows amyloid nucleation score of 0.5 or more.
Result: Criterion met

Query: Please indicate if the recorded amyloid nucleation score for SNIWSSKKINTCLGM meets or exceeds 0.5.
Result: Criterion met

Query: Check if amyloid nucleation score >= 0.5 (inclusive). Item: QNQSFLINPWQGSKLVDPTA
Result: Criterion not met

Query: Is amyloid nucleation score for TAIIPPHFLASDSFRWSCAC at or above 0.5?
Result: Criterion not met

Query: Assess whether reported amyloid nucleation score for CHMKYFREVVATV sits at 0.5 or higher.
Result: Criterion not met

Query: # check: amyloid nucleation score of VDNMLPFMGDYWDLFYGFLL is greater than or equal to 0.5
Result: Criterion not met

Query: Tell me whether amyloid nucleation score is at least 0.5 here: NNLMFNYSGHMVSVKAHSSG
Result: Criterion met

Query: Is the recorded value of amyloid nucleation score equal to or greater than 0.5 for this substance? RIVISCRFEYGLGVGSSGVP
Result: Criterion not met

Query: State whether the measured amyloid nucleation score reaches 0.5, counting equality as reaching it, for GAYNWVF
Result: Criterion not met

Query: Does the substance TIWCVD have recorded amyloid nucleation score that is 0.5 or more?
Result: Criterion met

Query: hey, is amyloid nucleation score for this one >= 0.5? IINVLC
Result: Criterion met

Query: Record HMRMGLGRLVHLWYWPTRDT ; criterion: amyloid nucleation score no lower than 0.5. Met?
Result: Criterion not met

Query: Check the entry TKHRELVLPGLVFTTEYCLV : does amyloid nucleation score equal or exceed 0.5?
Result: Criterion not met

* * *

Test: amyloid nucleation score (Sup35N fusion, yeast selection) (log enrichment); library NNK2; higher = more nucleation; inactive = no reads after selection
Measure: amyloid nucleation score

A selection of reference data follows.
Substance	Reported Measurement
MFLFGASLRIIRVVLTYELL	inactive
VWGFVSGIESMCGSKAPNGG	-0.158
LGGVSSHSELMPRVKVNWLT	inactive
RIFQLSTSGN	0.072
NDKCKLVLIGLDFNELVQPS	-0.708
CWNDVIQKMVQYNTINFVLS	4.88

Query: Please report the measured amyloid nucleation score for AMQLCSFTPFSTYNFLSYDS
Result: -0.685

Query: // fetch amyloid nucleation score given entry WLYSIDYNFLKRVIGYCYRN
Result: inactive

Query: Assign amyloid nucleation score to the following record: TFTSRGMMSLGFGRR
Result: 6.01

Query: Give recorded amyloid nucleation score. LFYSPSVGCWFLFSYGPHIG
Result: inactive

Query: Provide one value: measured amyloid nucleation score of VRCKVCPGRAYFDMRAPMQS
Result: -0.512

Query: Provide measured amyloid nucleation score value, entry: VGDVGMFFLSR
Result: -0.668

* * *

Test: amyloid nucleation score (Sup35N fusion, yeast selection) (log enrichment); library NNK2; higher = more nucleation; inactive = no reads after selection
Measure: amyloid nucleation score

Ordered Residues	Reported Measurement
RCKIRSLFSNLYPDSVFTLT	inactive
DALDTRKLYN	inactive
LIGFLEEKVLLFIITWCFQ	inactive
FLLECSWFCVYTIGFYYRNI	inactive

* * *

Test: amyloid nucleation score (Sup35N fusion, yeast selection) (log enrichment); library NNK3; higher = more nucleation; inactive = no reads after selection
Measure: amyloid nucleation score

Some substances with known amyloid nucleation score results, for comparison:
Substance	Measure	Reported Measurement
CVILYLTGKSFIVLSIVVAE	amyloid nucleation score	inactive
ILVIIKNHFVFFAGR	amyloid nucleation score	inactive
TKDIMHTSSLVRWTHREAWC	amyloid nucleation score	inactive
NVINSMGLSKQIIPSQVQSS	amyloid nucleation score	inactive

Query: Read off the recorded amyloid nucleation score for IIRVLNWYHYIEAKTLNSLR
Result: inactive

Query: // fetch amyloid nucleation score given entry SSCNLIWCFSSDAILKPLMQ
Result: 1.38

Query: Given FFLYLSKRLCVFCRCTYLGL , respond with its amyloid nucleation score.
Result: inactive

* * *

Assay: amyloid nucleation score (Sup35N fusion, yeast selection) (log enrichment); library NNK1; higher = more nucleation; inactive = no reads after selection
Param threshold (0.2) applies to amyloid nucleation score; output Fulfilled when value >= threshold, Not fulfilled when value < threshold.

Below are worked cases with known answers.
Substance	Category
SGCGTGKVDVNWGLENAKAG	Fulfilled
MFRRFSWGR	Not fulfilled
DGTNSVRIASWLNIDEGAL	Not fulfilled
RVVPGGRLRYVNMVF	Fulfilled
PPQLHRVEFLIVSGR	Not fulfilled

Query: I'd appreciate it if you could say whether ASKFYHFRTQEYTS has amyloid nucleation score at least equal to 0.2.
Result: Fulfilled

Query: Say whether MNALGSTYWDQQSAQQSMWS shows amyloid nucleation score of 0.2 or more.
Result: Fulfilled

Query: Can PFVYLVYCGNGNVFAAKYLS be said to have amyloid nucleation score at or above 0.2?
Result: Fulfilled

Query: Answer whether amyloid nucleation score of SLGLFKIIRKPYHCSAPSQA is greater than or equal to 0.2.
Result: Fulfilled
